biological target: FLAG-mouse δOR (Mus musculus, UniProt P32300); construct: FLAG; expressed in transfected cells; host or cells: HEK 293; assay: cAMP GloSensor inhibition assay in HEK 293 cells; format: cell-based; details: relative to Leu-enkephalin = 100
Sequence (P32300 whole entry): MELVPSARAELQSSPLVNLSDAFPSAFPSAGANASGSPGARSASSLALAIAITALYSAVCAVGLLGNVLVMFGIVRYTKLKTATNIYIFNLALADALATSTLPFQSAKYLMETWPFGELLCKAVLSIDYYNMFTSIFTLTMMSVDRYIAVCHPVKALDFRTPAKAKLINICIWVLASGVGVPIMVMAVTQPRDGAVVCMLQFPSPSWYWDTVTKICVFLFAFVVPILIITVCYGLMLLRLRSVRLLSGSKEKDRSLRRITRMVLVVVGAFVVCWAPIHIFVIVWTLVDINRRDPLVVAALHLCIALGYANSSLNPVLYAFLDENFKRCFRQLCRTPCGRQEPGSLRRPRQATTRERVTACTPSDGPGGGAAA
property: cAMP δOR Efficacy (%+SD) (%)
One number for each entry, in %.

{"compound": "COc1cccc(C[C@H](NC(=O)CNC(=O)CNC(=O)[C@@H](N)Cc2ccc(O)cc2)C(=O)N[C@@H](CC(C)C)C(=O)O)c1", "system-name": "FLAG-mouse δOR (Mus musculus, UniProt P32300)", "value-measured": 98}
{"compound": "CC(C)C[C@H](NC(=O)[C@H](Cc1cccc(C#N)c1)NC(=O)CNC(=O)CNC(=O)[C@@H](N)Cc1ccc(O)cc1)C(=O)O", "system-name": "FLAG-mouse δOR (Mus musculus, UniProt P32300)", "value-measured": 100}
{"compound": "Cc1cccc(C[C@H](NC(=O)CNC(=O)CNC(=O)[C@@H](N)Cc2ccc(O)cc2)C(=O)N[C@@H](CC(C)C)C(=O)O)c1", "system-name": "FLAG-mouse δOR (Mus musculus, UniProt P32300)", "value-measured": 92}
{"compound": "CC(C)C[C@H](NC(=O)[C@H](Cc1cccc(F)c1)NC(=O)CNC(=O)CNC(=O)[C@@H](N)Cc1ccc(O)cc1)C(=O)O", "system-name": "FLAG-mouse δOR (Mus musculus, UniProt P32300)", "value-measured": 95}
{"compound": "CC(C)C[C@H](NC(=O)[C@H](Cc1cccc([N+](=O)[O-])c1)NC(=O)CNC(=O)CNC(=O)[C@@H](N)Cc1ccc(O)cc1)C(=O)O", "system-name": "FLAG-mouse δOR (Mus musculus, UniProt P32300)", "value-measured": 99}
{"compound": "CC(C)C[C@H](NC(=O)[C@H](Cc1cccc(Cl)c1)NC(=O)CNC(=O)CNC(=O)[C@@H](N)Cc1ccc(O)cc1)C(=O)O", "system-name": "FLAG-mouse δOR (Mus musculus, UniProt P32300)", "value-measured": 94}

Take each entry in turn and give its cAMP δOR Efficacy (%+SD).
1. CC(C)C[C@H](NC(=O)[C@H](Cc1cccc(I)c1)NC(=O)CNC(=O)CNC(=O)[C@@H](N)Cc1ccc(O)cc1)C(=O)O
2. CC(C)C[C@H](NC(=O)[C@H](Cc1cccc(C(F)(F)F)c1)NC(=O)CNC(=O)CNC(=O)[C@@H](N)Cc1ccc(O)cc1)C(=O)O
3. CC(C)C[C@H](NC(=O)[C@H](Cc1cccc(Br)c1)NC(=O)CNC(=O)CNC(=O)[C@@H](N)Cc1ccc(O)cc1)C(=O)O
4. CC(C)C[C@H](NC(=O)[C@H](Cc1ccccc1)NC(=O)CNC(=O)CNC(=O)[C@@H](N)Cc1ccc(O)cc1)C(=O)O [Leu^5-enkephalin, Tyr^1-Gly^2-Gly^3-Phe^4-Leu^5, reference compound]

stdout:
[97, 92, 96, 100]

---

target: δOR (Homo sapiens); assay: PathHunter β-arrestin 2 recruitment assay in CHO cells
Sequence (P41143 whole entry): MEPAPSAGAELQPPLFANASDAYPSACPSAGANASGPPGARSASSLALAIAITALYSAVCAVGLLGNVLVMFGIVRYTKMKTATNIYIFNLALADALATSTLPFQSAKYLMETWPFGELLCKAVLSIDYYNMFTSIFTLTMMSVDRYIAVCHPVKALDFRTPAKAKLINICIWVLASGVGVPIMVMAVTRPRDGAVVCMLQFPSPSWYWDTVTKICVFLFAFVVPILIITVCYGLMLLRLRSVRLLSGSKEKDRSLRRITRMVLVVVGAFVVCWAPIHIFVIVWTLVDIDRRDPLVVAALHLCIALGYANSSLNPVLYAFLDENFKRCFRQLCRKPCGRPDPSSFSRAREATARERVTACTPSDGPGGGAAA
Square brackets hold non-standard residues; d marks the D form. Peptide text beside a SMILES is read from it. 2Pal = N[C@@H](Cc1ccccn1)C(=O)O; 3Pal = N[C@@H](Cc1cccnc1)C(=O)O; 4Pal = N[C@@H](Cc1ccncc1)C(=O)O
property: pEC50
Numbers only, as −log10 of the molar value.

Examples from the recorded data:
{"compound": "CC(C)C[C@H](NC(=O)[C@H](Cc1cccnc1)NC(=O)CNC(=O)CNC(=O)[C@@H](N)Cc1ccc(O)cc1)C(=O)O [Compound 1k] (H-YGG[3Pal]L-OH; N-terminus and C-terminus assumed)", "value-measured": 5.95}
{"compound": "CC(C)C[C@H](NC(=O)[C@H](Cc1ccccn1)NC(=O)CNC(=O)CNC(=O)[C@@H](N)Cc1ccc(O)cc1)C(=O)O [Compound 1j] (H-YGG[2Pal]L-OH; N-terminus and C-terminus assumed)", "value-measured": 7.00}

Please examine the following record next.
stdin: Hi! What's the reported pEC50 for CC(C)C[C@H](NC(=O)[C@H](Cc1ccncc1)NC(=O)CNC(=O)CNC(=O)[C@@H](N)Cc1ccc(O)cc1)C(=O)O [Compound 1l] (H-YGG[4Pal]L-OH; N-terminus and C-terminus assumed) on δOR (Homo sapiens)?
stdout: 6.40

All values here come from paper PMC6943441.
